# Assayed Target: yeast Gal4-DNA binding domain fused to the ligand binding domain of human RORγ (Homo sapiens)
# Construct: host or cells: HEK293t
# Sequence (P51449 269-508 limits assumed): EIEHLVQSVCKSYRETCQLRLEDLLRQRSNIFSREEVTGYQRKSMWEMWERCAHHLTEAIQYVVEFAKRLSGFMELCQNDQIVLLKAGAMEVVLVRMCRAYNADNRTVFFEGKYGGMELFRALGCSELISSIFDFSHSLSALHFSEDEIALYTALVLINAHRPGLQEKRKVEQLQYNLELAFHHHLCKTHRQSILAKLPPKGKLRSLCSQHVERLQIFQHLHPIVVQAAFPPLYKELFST
# Assay Remarks: RORγ Reporter Assay (Gal4)
# Type: cell-based
# Reported Conditions: RORγ Reporter Assay (Gal4) at 0.1 μM; values given as lower bounds of ranges
Value Kind: Gal4 activity range @ 0.1 μM (% inhibition)

// solved cases for Gal4 activity range @ 0.1 μM (% inhibition) follow
>>> result("CS(=O)(=O)N1CCC(CNc2ncnc(N3CCCC3c3ccc(C(F)(F)F)cc3O)c2F)CC1 (stereo not drawn)")
">50 % inhibition"
>>> result("CS(=O)(=O)N1CCC(CNc2ncnc(N3CCOC[C@@H]3c3ccc(C(F)(F)F)cc3)c2F)CC1")
">80 % inhibition"
>>> result("Fc1c(NCC2CCCOC2)ncnc1N1CCC[C@@H]1c1ccc(C(F)(F)F)cc1 (stereo partly drawn)")
">0 % inhibition"
>>> result("NC(=O)C1(CNc2ncnc(N3CCOC[C@@H]3c3ccc(C(F)(F)F)cc3)c2F)CCOCC1")
">20 % inhibition"
>>> result("O=S(=O)(NC1CC1)c1ccc(CNc2ncnc(N3CCC[C@@H]3c3ccc(C(F)(F)F)cc3)c2F)cc1")
">80 % inhibition"
>>> result("COC(=O)C1(CNc2ncnc(N3CCOCC3c3ccc(C(F)(F)F)cc3)c2F)CCOCC1 (stereo not drawn)")
">50 % inhibition"
>>> result("O=S(=O)(NC1CC1)c1ccc(CNc2ncnc(N3CCOCC3c3ccccc3)c2F)cc1 (stereo not drawn)")
">20 % inhibition"
>>> result("Fc1c(NCc2ccc(Cn3ccnc3)cc2)ncnc1N1CCCC1c1ccc(C(F)(F)F)cc1 (stereo not drawn)")
">80 % inhibition"

Inquiry: Suppose we examine the compound CS(=O)(=O)N1CCC(CNc2ncnc(N3CCOCC3c3ccccc3)c2F)CC1 (stereo not drawn) ; what Gal4 activity range @ 0.1 μM (% inhibition) value has been reported?
Reply text: >20 % inhibition

Inquiry: Please look up its Gal4 activity range @ 0.1 μM (% inhibition): CC1(CNc2ncnc(N3CCC[C@@H]3c3ccc(C(F)(F)F)cc3)c2F)CCCO1 (stereo partly drawn)
Reply text: >20 % inhibition

Inquiry: Which Gal4 activity range @ 0.1 μM (% inhibition) is listed for "CC1(CNc2ncnc(N3CCC[C@@H]3c3ccc(C(F)(F)F)cc3)c2F)COC1" ?
Reply text: >20 % inhibition

Inquiry: Name the recorded Gal4 activity range @ 0.1 μM (% inhibition) for Cc1nc(CNc2ncnc(N3CCCC3c3ccc(C(F)(F)F)cc3)c2F)ccc1C(C)O (stereo not drawn) .
Reply text: >0 % inhibition

Inquiry: Gal4 activity range @ 0.1 μM (% inhibition) lookup needed for N#CNC(=O)Cc1ccc(CNc2ncnc(N3CCOCC3c3ccc(C(F)(F)F)cc3)c2F)cc1 (stereo not drawn) , thanks.
Reply text: >0 % inhibition

Inquiry: Fill in: Gal4 activity range @ 0.1 μM (% inhibition) of "OC1(CNc2ncnc(N3CCC[C@@H]3c3ccc(C(F)(F)F)cc3)c2F)CCSCC1" is ___
Reply text: >0 % inhibition

Inquiry: Dear colleague, I am looking for the recorded Gal4 activity range @ 0.1 μM (% inhibition) of the following compound: OCC1(CNc2ncnc(N3CC(F)(F)CC3c3ccc(C(F)(F)F)cc3)c2F)COC1 (stereo not drawn)
Reply text: >20 % inhibition

Inquiry: What value of Gal4 activity range @ 0.1 μM (% inhibition) has been reported for the following compound? O=C(c1ccncc1)N1CCC(Nc2ncnc(N3CCCC3c3ccc(C(F)(F)F)cc3)c2F)C1 (stereo not drawn)
Reply text: >20 % inhibition

Inquiry: Tell me the measured Gal4 activity range @ 0.1 μM (% inhibition) of "N#CC1(CNc2ncnc(N3CCOC[C@@H]3c3ccc(C(F)(F)F)cc3)c2F)CCOCC1" , please.
Reply text: >50 % inhibition

Inquiry: Using the record for "O=S(=O)(Nc1ccc(CNc2ncnc(N3CCOC[C@@H]3c3ccc(C(F)(F)F)cc3)c2F)cc1)C(F)(F)F" , report its Gal4 activity range @ 0.1 μM (% inhibition).
Reply text: >0 % inhibition

---

# Assayed Target: human RORγt (Ligand Binding Domain) (Homo sapiens, UniProt P51449)
# Construct: purchased Crelux (Planegg, Germany) batch no PC5032-1
# Assay Remarks: Fluorescence Polarization (FP) Assay
# Reported Conditions: Fluorescence Polarization (FP) Assay; values given as upper bounds of activity ranges; read-out: FP activity range
pIC50: −log10 of the molar value.
Value Kind: pIC50

As a guide, the following entries are already answered.
>>> result("OCC1CCN(c2ccc(CNc3ncnc(N4CCCC4c4ccc(C(F)(F)F)cc4)c3F)cn2)CC1 (stereo not shown) [Example 58]")
"> 5.00"
>>> result("N#CC[C@H]1CC[C@H](CNc2ncnc(N3CCOC[C@@H]3c3ccc(C(F)(F)F)cc3)c2F)CC1 [Example 287]")
"> 6.30"
>>> result("Cc1c(N[C@H](CC(C)(C)C)C(N)=O)ncnc1N1CCCC1c1ccc(C(F)(F)F)cc1 (stereo partly shown) [Example 14]")
"> 5.00"

Field: next compound
Inquiry: Value lookup for pIC50; key = NC(=O)Cc1ccc(CNc2ncnc(N3CCCC3c3ccc(C(F)(F)F)cc3)c2F)cc1 (stereo not shown) [Example 40]
Reply text: > 6.00

---

# Assayed Target: human RORγt (Ligand Binding Domain) (Homo sapiens, UniProt P51449)
# Construct: purchased Crelux (Planegg, Germany) batch no PC5032-1
# Assay Remarks: Fluorescence Polarization (FP) Assay
# Reported Conditions: Fluorescence Polarization (FP) Assay; values given as upper bounds of activity ranges; read-out: FP activity range
pIC50: −log10 of the molar value.
Value Kind: pIC50

Please review the following examples before continuing.
>>> result("COc1ccc(CNc2ncnc(N3CCCC3c3ccc(C(F)(F)F)cc3)c2F)cn1 (centres unmarked)")
"> 6.00"
>>> result("O=S(=O)(Nc1ccc(CNc2ncnc(N3CCOC[C@@H]3c3ccc(C(F)(F)F)cc3)c2F)cc1)C(F)(F)F")
"> 6.00"

Inquiry: May I ask what pIC50 has been recorded for CS(=O)(=O)N1CCOC(CNc2ncnc(N3CCOC[C@@H]3c3ccc(C(F)(F)F)cc3)c2F)C1 (some centres unmarked) ?
Reply text: > 5.70

Inquiry: Using the record for O=C(O)CC1CCC(CNc2ncnc(N3CCOC[C@@H]3c3ccc(C(F)(F)F)cc3)c2F)CC1 (some centres unmarked) , report its pIC50.
Reply text: > 6.30

---

IC50 values for the compounds below.
# Assayed Target: human RORγt (Ligand Binding Domain) (Homo sapiens, UniProt P51449)
# Construct: purchased Crelux (Planegg, Germany) batch no PC5032-1
# Assay Remarks: Fluorescence Polarization (FP) Assay
# Reported Conditions: Fluorescence Polarization (FP) Assay; values given as upper bounds of activity ranges; read-out: FP activity range

Examples with answers:
>>> result("CC(C)(C)CC(Nc1ncnc(N2CCCC2c2ccc3ncccc3c2)c1F)C(N)=O (stereo in doubt)")
"< 500 nM"
>>> result("O=C(O)Cc1ccc(CNc2ncnc(N3CCC[C@H]3c3ccc(C(F)(F)F)cc3)c2F)cc1")
"< 10000 nM"
>>> result("O=C(O)Cc1ccc(CNc2ncnc(N3CCCC3c3ccc(OC(F)(F)F)cc3)c2F)cc1 (centres unmarked)")
"< 500 nM"
>>> result("COc1ccc(Cn2ccc3c(N4CCCC4c4ccc(C(F)(F)F)cc4)ccnc32)cc1OC (centres unmarked)")
"< 2000 nM"
>>> result("OCc1ccc(CNc2ncnc(N3CCC[C@@H]3c3ccc(C(F)(F)F)cc3)c2F)cc1")
"< 500 nM"
>>> result("Cc1ccc(CNc2ncnc(N3CCCC3c3ccc(C)o3)c2F)cn1 (centres unmarked)")
"< 10000 nM"
>>> result("CC1CC(c2ccc(C(F)(F)F)cc2)N(c2ncnc(NCc3ccc(CC(N)=O)cc3)c2F)C1 (centres unmarked)")
"< 1000 nM"

Read the next record carefully.
Inquiry: Item under review: "CNC(=O)Cc1ccc(CNc2ncnc(N3CCOC[C@@H]3c3ccc(C(F)(F)F)cc3)c2F)cc1" . Reported IC50?
Reply text: < 2000 nM

---

# Assayed Target: yeast Gal4-DNA binding domain fused to the ligand binding domain of human RORγ (Homo sapiens, UniProt P51449)
# Construct: host or cells: HEK293t
# Sequence (P51449 269-508 limits assumed): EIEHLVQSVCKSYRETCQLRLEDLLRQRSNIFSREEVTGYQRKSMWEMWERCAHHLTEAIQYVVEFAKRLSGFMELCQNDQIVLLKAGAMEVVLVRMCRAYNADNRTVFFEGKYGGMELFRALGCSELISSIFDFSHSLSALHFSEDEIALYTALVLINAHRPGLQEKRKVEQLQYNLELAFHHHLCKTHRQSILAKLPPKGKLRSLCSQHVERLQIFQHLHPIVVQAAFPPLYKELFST
# Assay Remarks: RORγ Reporter Assay (Gal4)
# Format: cell-based
# Reported Conditions: RORγ Reporter Assay (Gal4) at 1 μM; values given as lower bounds of ranges
# Protocol: The activity of the compounds was evaluated using a Fluorescence Polarization (FP) Assay and, in most cases, a Th17 Assay and/or RORγ Reporter assay (also referred to as Gal4 assay). The FP assay is an in vitro assay monitoring binding within the ligand binding pocket. The RORγ and the Th17 assays are both cell-based assays monitoring functional activity of the compound assayed. […]
Value Kind: Gal4 activity range @ 1 μM (% inhibition)

The cases that follow already have their Gal4 activity range @ 1 μM (% inhibition) on record.
>>> result("NC(=O)Cc1ccc(CNc2ncnc(N3CCCC3c3cccc(Cl)c3)c2F)cc1 (stereo not shown)")
">80 % inhibition"
>>> result("Fc1c(NCc2ccc(Cc3nnn[nH]3)cc2)ncnc1N1CCOC[C@@H]1c1ccc(OC(F)(F)F)cc1")
">80 % inhibition"
>>> result("O=S(=O)(O)c1ccc(CNc2ncnc(N3CCC[C@@H]3c3ccc(C(F)(F)F)cc3)c2F)cc1")
">0 % inhibition"
>>> result("O=C(O)Cc1ccc(COc2ncnc(N3CCCC3c3ccc(C(F)(F)F)cc3)c2F)cc1 (stereo not shown)")
">50 % inhibition"

From here, focus on the item given below.
Inquiry: Entry CCc1ccc(C2CCCN2c2ncnc(NCc3ccc(CC(N)=O)cc3)c2F)o1 (stereo not shown) has what Gal4 activity range @ 1 μM (% inhibition)?
Reply text: >80 % inhibition
